Hi there, I'd appreciate the recorded clearance for every entry that follows.
Assay: Clearance in ICR mouse at 1 mg/kg, iv measured upto 24 hrs by LC-MS analysis
Type: ADME, organism-based
Conditions: in vivo
Numbers only, in mL/min/kg.

CHEMICAL STRING: CC(C)N/N=C/c1ccc(-c2ccc(N3C[C@H](CO)OC3=O)cc2F)cn1
UNITS LABEL: mL/min/kg
clearance: 34.9
--
CHEMICAL STRING: CC(=O)NC[C@H]1CN(c2ccc(N3CCOCC3)c(F)c2)C(=O)O1
UNITS LABEL: mL/min/kg
clearance: 20.6
--
CHEMICAL STRING: O=C1O[C@@H](CO)CN1c1ccc(-c2ccc(/C=N/N3CCOCC3)nc2)c(F)c1
UNITS LABEL: mL/min/kg
clearance: 5.9

Attention now shifts to the item below.
Request: Request the reported clearance associated with `O=C1O[C@@H](CO)CN1c1ccc(-c2ccc(/C=N/N3CCCCC3)nc2)c(F)c1`
Response: 13.9
